Target: farnesol X receptor (FXR) (Homo sapiens, UniProt Q96RI1)
Construct: endogenous in cells; host or cells: HepG2
Sequence (Q96RI1 1-486): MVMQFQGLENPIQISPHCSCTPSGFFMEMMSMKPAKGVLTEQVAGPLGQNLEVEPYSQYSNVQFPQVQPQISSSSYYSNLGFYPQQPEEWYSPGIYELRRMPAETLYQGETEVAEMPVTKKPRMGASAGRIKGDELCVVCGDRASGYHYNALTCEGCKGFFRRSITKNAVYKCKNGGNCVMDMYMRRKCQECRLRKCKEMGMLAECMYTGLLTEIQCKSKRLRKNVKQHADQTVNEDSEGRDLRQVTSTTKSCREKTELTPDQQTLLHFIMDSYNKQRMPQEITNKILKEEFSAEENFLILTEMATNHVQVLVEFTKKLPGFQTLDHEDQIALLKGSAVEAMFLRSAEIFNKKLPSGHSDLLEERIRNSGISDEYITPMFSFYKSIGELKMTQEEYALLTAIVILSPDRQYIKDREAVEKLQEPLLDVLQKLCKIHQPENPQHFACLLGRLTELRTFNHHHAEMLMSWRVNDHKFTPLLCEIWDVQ
Assay: Farnesol X receptor (FXR) reporter gene assay (dual luciferase) in HepG2 cells
Assay type: cell-based
Conditions: dose 10 uM; HepG2 cells, drug treatment 24 hours; firefly/renilla luciferase ratio, Con = 1.00
measurement kind: fold induction at 10 µM

The following molecules have reported results that may help.
[[record]]
record_smiles = "O=C(O)CNC(=O)/C=C/c1ccc(OCc2ccc(F)cc2)cc1"
target_or_test_system = "farnesol X receptor (FXR) (Homo sapiens, UniProt Q96RI1)"
measured_number = 1.14

[[record]]
record_smiles = "CCOC(=O)CNC(=O)/C=C/c1ccc(OCc2c(-c3ccccc3)noc2C)cc1"
target_or_test_system = "farnesol X receptor (FXR) (Homo sapiens, UniProt Q96RI1)"
measured_number = 1.61

[[record]]
record_smiles = "CCOC(=O)[C@H](C)NC(=O)/C=C/c1ccc(OCc2c(-c3ccccc3)noc2C)cc1"
target_or_test_system = "farnesol X receptor (FXR) (Homo sapiens, UniProt Q96RI1)"
measured_number = 1.04


[I] COC(=O)[C@@H](C)NC(=O)/C=C/c1ccc(OCc2c(-c3c(Cl)cccc3Cl)noc2C(C)C)cc1
[II] O=C(O)CNC(=O)/C=C/c1ccc(OCc2ccccc2)cc1
Prompt: Of the two listed items, which has the higher fold induction at 10 µM? First: I Second: II Please reply using the label of the selected record.
Completion: I

====

Biological target: farnesol X receptor (FXR) (Homo sapiens, UniProt Q96RI1)
Construct: endogenous in cells; host or cells: HepG2
Experiment: Farnesol X receptor (FXR) reporter gene assay (dual luciferase) in HepG2 cells
Format: cell-based
Conditions: dose 10 uM; HepG2 cells, drug treatment 24 hours; firefly/renilla luciferase ratio, Con = 1.00
measurement kind: fold induction at 10 µM

// solved cases for fold induction at 10 µM follow
[[record]]
record_smiles = "Cc1onc(-c2ccccc2)c1COc1ccc(/C=C/C(=O)N[C@@H](Cc2ccccc2)C(=O)O)cc1"
measured_number = 1.41

[[record]]
record_smiles = "CCOC(=O)CNC(=O)/C=C/c1ccc(OCc2ccc(-c3ccccc3)cc2)cc1"
measured_number = 2.03

[[record]]
record_smiles = "COC(=O)CCNC(=O)/C=C/c1ccc(OCc2c(-c3c(Cl)cccc3Cl)noc2C(C)C)cc1"
measured_number = 10

[[record]]
record_smiles = "CC(C)c1onc(-c2c(Cl)cccc2Cl)c1COc1ccc(/C=C/C(=O)N[C@@H](C)C(=O)O)cc1"
measured_number = 7.44

[[record]]
record_smiles = "Cc1onc(-c2ccccc2)c1COc1ccc(/C=C/C(=O)N[C@@H](C)C(=O)O)cc1"
measured_number = 0.82

[[record]]
record_smiles = "CC(C)c1onc(-c2c(Cl)cccc2Cl)c1COc1ccc(/C=C/C(=O)N[C@H](C)C(=O)O)cc1"
measured_number = 8.12

[[record]]
record_smiles = "Cc1onc(-c2ccccc2)c1COc1ccc(/C=C/C(=O)N[C@H](C(=O)O)C(C)C)cc1"
measured_number = 1.24

[[record]]
record_smiles = "Cc1onc(-c2ccccc2)c1COc1ccc(/C=C/C(=O)NCCC(=O)O)cc1"
measured_number = 1.13

[[record]]
record_smiles = "CCOC(=O)[C@@H](NC(=O)/C=C/c1ccc(OCc2c(-c3ccccc3)noc2C)cc1)C(C)C"
measured_number = 0.93

[[record]]
record_smiles = "CCOC(=O)[C@H](C)NC(=O)/C=C/c1ccc(OCc2c(-c3c(Cl)cccc3Cl)noc2C(C)C)cc1"
measured_number = 10.9


[P] Cc1onc(-c2ccccc2)c1COc1ccc(/C=C/C(=O)NCC(=O)O)cc1
[Q] CC(C)c1onc(-c2c(Cl)cccc2Cl)c1COc1ccc(/C=C/C(=O)NCCC(=O)O)cc1
Prompt: Identify the entry with the smaller fold induction at 10 µM: P or Q . Please reply using the label of the selected record.
Completion: P

[1] Cc1onc(-c2ccccc2)c1COc1ccc(/C=C/C(=O)N[C@H](C)C(=O)O)cc1
[2] CC(C)c1onc(-c2c(Cl)cccc2Cl)c1COc1ccc(/C=C/C(=O)N[C@@H](Cc2ccccc2)C(=O)O)cc1
[3] CCOC(=O)CNC(=O)/C=C/c1ccc(OCc2cccc([N+](=O)[O-])c2)cc1
Prompt: Rank descending by fold induction at 10 µM. To answer, arrange all of the labels according to the requested order.
Completion: 2, 3, 1
(2: 9, 3: 1.5, 1: 0.9)

[a] O=C(O)CNC(=O)/C=C/c1ccc(OCc2cc(F)c(F)cc2F)cc1
[b] CCOC(=O)CNC(=O)/C=C/c1ccc(OCc2ccc([N+](=O)[O-])cc2)cc1
Prompt: Of the pair a and b , name the member with the lesser recorded fold induction at 10 µM. Let me know the label of the one you choose.
Completion: b
